biological target: the molecule itself; test: two-hybrid; mammalian two-hybrid in HeLa cells: GAL4 DNA-BD (pM) and VP16 DNA-AD (pVP) fusions, pG5luc firefly luciferase normalised to Renilla luciferase, 24 h post-transfection; percent of the wt N-N interaction
assayEndpoint: M2H % of interaction

M2H % of interaction lookup needed for UUKV-N protein point mutant Y33A, mammalian two-hybrid fusions (natural protein, Uukuniemi virus nucleocapsid (N) protein, 254 aa residues; Mutation introduced into both the DNA-BD and the DNA-AD fusion; no chain carries both domains; also called negative control mutant; source: HeLa, transfected, mammalian two-hybrid fusions) MAMPENWVRFAIEISDAQWEEEEIREFINLFQAQGFDAAVVLSRIFELAKKADLSRDQMLRDIRALITLHLTRGNKLSSIEKRLSEEGKKEFALLKARYQLVDKAKEAADLTLSRIAIANAGLTCRILPQVVAHTAVTRSRMESLSADYPVCMMHNAFAGLIDETLPEDSIKALVDAHRLYLLEFSRTINVKHRGMEAKEILDANDSALQAGLASSFLTPSQKRAYLLSFKLVDGNGKVNKAVQQAATVLRSLI , thanks.
> 100%
